Source listed as PubChem BioAssay (NCI).

Assignment: determine reported TGI for the given compounds.
System: SK-MEL-2 melanoma
Assay: NCI tumour cell line growth inhibition, 48 h

Examples with their reported TGI follow.
{"compound": "COc1ccc(/C=N/n2cnc3[nH]c(C)c(Cc4ccccc4)c3c2=N)cc1", "TGI": "> 100 µM"}
{"compound": "C=CCc1cc(OC)c2c(c1)C(OC)CC(c1ccc(OC)c(OC)c1)O2 (stereo not given)", "TGI": "> 100 µM"}
{"compound": "CC(SC(=O)Nc1ccc(N=Nc2ccccc2)cc1)C(=O)O (stereo not given)", "TGI": "> 100 µM"}

Parameter requested: TGI. Apply to each item below.
1. CN(C)C(=S)SCC(=O)Nc1ccccc1
2. CCn1c(-c2nonc2N)nc2cncc(C(=O)N3CC[C@H](N)C3)c21

1: > 100 µM; 2: > 25 µM
